TARGET: EGFR exon 20 ASV Ins V769_D770 (Ba/F3 cells) (Homo sapiens, UniProt P00533, INS769ASV)
Construct: expressed in transfected cells; host or cells: Ba/F3 (murine pro-B cells), retroviral transduction, puromycin selection, IL3-independent pool
Sequence (P00533 with tags, fused parts or gaps INS769ASV): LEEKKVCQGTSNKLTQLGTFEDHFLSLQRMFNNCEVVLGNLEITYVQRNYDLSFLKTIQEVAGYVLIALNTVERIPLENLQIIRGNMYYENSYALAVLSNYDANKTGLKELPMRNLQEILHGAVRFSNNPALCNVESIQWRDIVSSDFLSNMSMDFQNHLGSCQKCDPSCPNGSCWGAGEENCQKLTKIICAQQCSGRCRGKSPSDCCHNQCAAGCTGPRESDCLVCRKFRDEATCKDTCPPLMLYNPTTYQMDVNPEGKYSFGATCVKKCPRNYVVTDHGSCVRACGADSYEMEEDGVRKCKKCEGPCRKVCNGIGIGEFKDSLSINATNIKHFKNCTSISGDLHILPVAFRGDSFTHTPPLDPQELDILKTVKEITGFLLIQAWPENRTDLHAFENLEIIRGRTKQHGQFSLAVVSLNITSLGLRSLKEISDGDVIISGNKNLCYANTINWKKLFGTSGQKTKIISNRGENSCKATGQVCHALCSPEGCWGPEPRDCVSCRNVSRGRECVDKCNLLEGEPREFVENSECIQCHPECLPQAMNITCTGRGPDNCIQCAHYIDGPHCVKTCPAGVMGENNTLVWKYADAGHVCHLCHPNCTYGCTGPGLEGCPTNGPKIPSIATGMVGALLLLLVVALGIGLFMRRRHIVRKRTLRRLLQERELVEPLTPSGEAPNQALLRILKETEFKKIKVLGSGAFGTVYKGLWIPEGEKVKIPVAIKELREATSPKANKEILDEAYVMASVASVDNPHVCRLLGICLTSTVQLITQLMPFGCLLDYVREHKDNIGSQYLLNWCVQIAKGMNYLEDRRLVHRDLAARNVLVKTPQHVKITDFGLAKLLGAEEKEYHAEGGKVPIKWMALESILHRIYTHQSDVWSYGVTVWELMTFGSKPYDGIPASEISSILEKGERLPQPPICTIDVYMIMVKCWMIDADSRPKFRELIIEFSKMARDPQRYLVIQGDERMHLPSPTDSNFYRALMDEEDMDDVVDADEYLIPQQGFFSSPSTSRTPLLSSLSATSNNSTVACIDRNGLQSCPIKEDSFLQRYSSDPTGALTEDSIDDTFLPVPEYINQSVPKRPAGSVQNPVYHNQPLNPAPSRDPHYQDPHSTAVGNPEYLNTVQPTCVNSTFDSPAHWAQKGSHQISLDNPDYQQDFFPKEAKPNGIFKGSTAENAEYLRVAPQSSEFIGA
EXPERIMENT_NOTES: Inhibitor activity on EGFR phosphorylation (pEGFR AlphaLISA, 2 h), Ba/F3 EGFR exon 20 ASV Ins
Type: cell-based
CONDITION_DESCRIPTION: EGFR phosphorylation, AlphaLISA, 2 hours; read-out: ASV IC50 (pEGFR)
PROPERTY: IC50

Previously resolved entries follow.
> print(dat)
                                    molecule             val
 1  COc1cccc(Nc2c(-c3ccnc(N)n3)[nH]c3c2C(=O)NCC3)c1Cl [compound 301]       > 1000 nM
 2  CC#Cc1cccc(Nc2c(-c3ccnc(N)n3)[nH]c3c2C(=O)NCC3)c1OC [Compound 704]       > 1000 nM
 3  COc1c(Cl)cccc1Nc1c(-c2ncnc3[nH]ccc23)[nH]c2c1C(=O)NCC2 [compound 289]       > 1000 nM
 4  Cc1c(F)cccc1Nc1c(-c2nc(N)ncc2F)[nH]c2c1C(=O)NCC2 [Compound 689]  100 to 1000 nM
 5  COc1c(Cl)cccc1Nc1c(-c2ccnc(NC3CC(F)(F)C3)n2)[nH]c2c1C(=O)NCC2 [Compound 712]  100 to 1000 nM
 6  CNc1cc(-c2[nH]c3c(c2Nc2cccc(Cl)c2OC)C(=O)NCC3)ncn1 [compound 284]       > 1000 nM
 7  C#Cc1cccc(Nc2c(-c3ccnc(N)n3)[nH]c3c2C(=O)NCC3)c1OC [Compound 703]  100 to 1000 nM
 8  COc1c(Cl)cccc1Nc1c(-c2ccnc(Nc3cnnn3C)n2)[nH]c2c1C(=O)NCC2 [compound 512]        < 100 nM
 9  COc1c(F)cccc1Nc1c(-c2ccnc3ccc(NC(C)(C)C)nc23)[nH]c2c1C(=O)NCC2 [Compound 694]        < 100 nM
10  Nc1nccc(-c2[nH]c3c(c2Nc2cccc(C(F)(F)F)c2)C(=O)NCC3)n1 [compound 199]  100 to 1000 nM

Supply recorded IC50 for COc1c(Cl)cccc1Nc1c(-c2ccnc(N)n2)[nH]c2c1C(=O)NCC2 [Compound 148] here.
< 100 nM

Supply recorded IC50 for COc1c(Cl)cccc1Nc1c(-c2ccnc(NCC(F)F)n2)[nH]c2c1C(=O)NCC2 [Compound 702] here.
100 to 1000 nM

Supply recorded IC50 for COc1c(Cl)cccc1Nc1c(-c2ccnc(NC[C@H]3CCCO3)n2)[nH]c2c1C(=O)NCC2 [compound 721] here.
100 to 1000 nM

Supply recorded IC50 for COCC[C@@H]1CNC(=O)c2c1[nH]c(-c1ccncn1)c2Nc1cccc(Cl)c1OC [445a] here.
< 100 nM

Supply recorded IC50 for COc1c(F)cccc1Nc1c(-c2ccnc3ccc(OC4CC4)nc23)[nH]c2c1C(=O)NCC2 [Compound 696, trifluoroacetic acid] here.
< 100 nM
